Target: T1, [2Fe-2S]-IscR-E43A (Escherichia coli, UniProt P0AGK8 1-162, E43A)
T1 sequence: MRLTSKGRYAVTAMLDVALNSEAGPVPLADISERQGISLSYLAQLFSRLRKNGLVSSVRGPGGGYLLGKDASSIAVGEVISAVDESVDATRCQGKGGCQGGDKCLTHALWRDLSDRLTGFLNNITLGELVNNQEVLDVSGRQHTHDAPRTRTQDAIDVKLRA
Test: fluorescence anisotropy
property label: pKd
One number for each entry, as −log10 of the molar value.

[ask] For the binder iscRB 30-mer (type 1) (dsDNA) DNA 1: AAATAGTTGACCATTTTACTCGGGAATGTC DNA 2: GACATTCCCGAGTAAAATGGTCAACTATTT , what pKd is on record?
[reply] 7.68

Recorded values, source paper PMC3676455.
